# Assay Text: in vitro
# Stated Conditions: human, HEK293 cells
Ends that are not written are not given here.
Measure Name: CC50 (µg/mL)
// units = µg/mL; emit number, no label

What value of measured CC50 is listed for CVNDTFAGSTFISDEVDGVDEVAKKKSK [Peptide-AB] ? 6

* * *

# Tested on: WM-266 cell line
Measure Name: CC50 (mg/L)
// units = mg/L; emit number, no label

What value of measured CC50 is listed for CCCCCCCCCCCCCC(=O)O[C@@H]1[C@@H](C)[C@@]2(O)[C@@H](C=C(CO)C[C@]3(O)C(=O)C(C)=C[C@@H]23)[C@@H]2C(C)(C)[C@]12OC(C)=O [PMA, Phorbol 12-myristate 13-acetate, reference compound] ? 310
